- TEST SUMMARY: S. cerevisiae growth inhibition in restrictive medium, OD615, pilot screen, restrictive growth control, yeast lifespan reduction project (AID 706);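 note: modified DeaD lifespan yeast strain shifted to restrictive glucose medium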
- STATED CONDITIONS: OD615, 48 h, at 10 µM, hits give high values

- COMPOUND: "COc1ccc(N2CCN(C(=O)c3cc4c(-c5ccc(Cl)cc5)nn(C)c4s3)CC2)cc1"
  growth inhibition, %: -4.22
- COMPOUND: "CCOc1cccc(NC(=O)Cc2cccs2)c1"
  growth inhibition, %: -0.895
- COMPOUND: "Cc1ccc(S(=O)(=O)N2CCOCC2)cc1C(=O)Nc1nc(-c2cccnc2)cs1"
  growth inhibition, %: -6.87
- COMPOUND: "Cc1cc(C(N)=O)c2cc(Br)ccc2n1"
  growth inhibition, %: -7.49
- COMPOUND: "COc1cccc(C2CC(c3ccc(C)cc3)n3nc(N)nc3N2)c1 (centres undefined)"
  growth inhibition, %: 9.55
- COMPOUND: "CCn1c(C(=O)NC(C)c2ccc3c(c2)OCCO3)cc2sccc21 (centres undefined)"
  growth inhibition, %: -9.22
- COMPOUND: "COc1ccc(C2CC(c3ccc(C)cc3)Nc3ncnn32)cc1 (centres undefined)"
  growth inhibition, %: 20
- COMPOUND: "O=C1CN(C(=O)COc2ccccc2)CCN1"
  growth inhibition, %: -15.5
- COMPOUND: "CN(C)CCNC(=O)c1cc2cc(Br)ccc2oc1=O"
  growth inhibition, %: -8.59
- COMPOUND: "CCCCC(=O)Nc1ccc(Br)cc1C(=O)O"
  growth inhibition, %: -10.9
- COMPOUND: "Cn1c2c(c(=O)n(C)c1=O)C1c3ccccc3OCC1C(C)(C)O2 (centres undefined)"
  growth inhibition, %: -19.5
- COMPOUND: "CCOC(=O)N1CCN(C(=O)C2CCN(C(=O)c3cc4sccc4n3CC)CC2)CC1"
  growth inhibition, %: -18.7
- COMPOUND: "COc1ccc(CCNC(=O)CSc2nnnn2-c2ccccc2OC)cc1OC"
  growth inhibition, %: 2.95
- COMPOUND: "O=C(CC1(O)C(=O)Nc2ccccc21)c1ccc2c(c1)OCO2 (centres undefined)"
  growth inhibition, %: -21.3
- COMPOUND: "CCOCCCNC(=O)Cn1cc2c(n1)CCCCC2"
  growth inhibition, %: -3.17
- COMPOUND: "Cc1cc(/C=N/n2cnnc2)c(C)n1-c1ccc(C(=O)O)cc1"
  growth inhibition, %: -2.69
- COMPOUND: "CCOC(=O)C1CCN(C(=O)CN(c2ccc(Cl)c(C(F)(F)F)c2)S(C)(=O)=O)CC1"
  growth inhibition, %: -8.95
- COMPOUND: "COc1ccc2c(c1OC)C(=O)OC2CC(=O)c1ccc(O)cc1 (centres undefined)"
  growth inhibition, %: -10.6
- COMPOUND: "CC(=O)c1ccc(OCC(O)CN2CCN(Cc3ccc4c(c3)OCO4)CC2)cc1 (centres undefined)"
  growth inhibition, %: -5.68
- COMPOUND: "Cc1cc(C)n2c(SCC(=O)Nc3cc(C)on3)nnc2n1"
  growth inhibition, %: -16.6
- COMPOUND: "CCOc1ccc(S(=O)(=O)Nc2ccccc2C(=O)NCC2CCCO2)cc1 (centres undefined)"
  growth inhibition, %: -16.7
- COMPOUND: "CCCN1CC23C=CC(O2)C(C(=O)O)C3C1=O (centres undefined)"
  growth inhibition, %: 2.93
- COMPOUND: "Cc1ccc(N(C(=O)c2ccncc2)C2C=CS(=O)(=O)C2)cc1 (centres undefined)"
  growth inhibition, %: -14
- COMPOUND: "O=C(NCc1ccc(F)cc1)c1cc2ccccn2n1"
  growth inhibition, %: 3.24

These data points were gathered from PubChem BioAssay.
